tested on: BT-549 breast; experiment: NCI-60 one-dose screen, 48 h; conditions: 10 µM unless noted
The panel holds about 83,000 compounds, 20% with a hit somewhere; the sample as a whole holds those more often. Active and inactive are the calls of the source. The calls were made as follows: active = growth percent below 10; inactive = the rest.
Outcomes: 1.0 (active), 0.0 (inactive)

> print(dat)
                                    compound  class.label
 1  C=COC(=O)CCOCC(CC)CCCC (centres undefined)          0.0
 2                      C=C(OC(C)=O)c1ccccc1          0.0
 3  COc1ccc(C2CC(c3ccccc3)=Nc3ccccc3S2)cc1 (centres undefined)          0.0
 4                            OC1Cc2ccccc2C1          0.0
 5  Cc1c(-c2ccc(C3CCCCC3)cc2)nc2ccc(F)cc2c1C(=O)O          0.0
 6       C#CC(O)c1ccccc1 (centres undefined)          0.0
 7  CC(=O)OC/C(C)=C\CC(C)COC(C)=O (centres undefined)          0.0
 8  CCCCCCCCCCCCCC/C=C\C(CC(=O)O)C(=O)O (centres undefined)          0.0
 9  Cc1ccc(S(=O)(=O)Oc2ccc3sc4c(CO)ccc(NCCN(C)C)c4c(=O)c3c2)cc1          1.0
10                     C#CCSc1nnnn1-c1ccccc1          0.0
11   CC1CC(C)S(=O)(=O)C1 (centres undefined)          0.0
12                       CCOc1ccc(C(=O)O)cc1          0.0
13                          CCOC(=O)Nc1nccs1          0.0
14  COC(c1ccc2c(c1)OCO2)C(C)Br (centres undefined)          0.0
15  CC(=O)N=c1ccc2nc3c(cc(N)c4ccccc43)oc-2c1          0.0
16      C[n+]1c(/C=C\C=C\N2CCCCC2)sc2ccccc21          1.0
17  CC(=O)C1C(=O)C(=O)N(c2ccc(Cl)c(Cl)c2)C1=O (centres undefined)          0.0
18                       O=C(O)Cc1ccc(Cl)cc1          0.0
19            NC(CCl)=NCC12CC3CC(CC(C3)C1)C2          1.0
20                             CC(=O)c1cccs1          0.0
21       C=C(c1ccc(N(C)C)cc1)c1ccc(N(C)C)cc1          1.0
22  Cc1ccccc1NC(=O)Oc1ccc(Cl)cc1C(=O)c1ccccc1          0.0
23  CC(C)(C)CC1(C)NC(=O)NC1=O (centres undefined)          0.0
24                                NC(=O)NCCO          0.0
25            Cc1cc(CC(=O)NCCO)n(CCO)c(=O)c1          0.0
26                            CCCCN(C=S)CCCC          0.0
27                CCOC(=O)c1ccc(C(C)(C)C)cc1          0.0
28                  CC(=O)N(C)N=Nc1ccc(C)cc1          0.0
29  Cc1ccccc1CC(N)C(=O)O (centres undefined)          0.0
